Documented plant injury at 125 g/ha across a set of compounds
- System: wheat (winter wheat, Triticum aestivum)
- protocol_description: Test C pre-/postemergence greenhouse herbicide test
- Format: in vivo
- run_conditions: Triticum aestivum, pre-emergence; Wheat; Preemergence; 125 g ai/ha; read-out: Plant response rating
Give the quantity in %, number only.

# input Which plant injury at 125 g/ha is reported for this compound? COc1cc(=O)n(-c2ccc(F)cc2)nc1Cc1ccnc(C(F)(F)F)c1
# output 50

# input How about COc1cc(=O)n(-c2ccc(C(F)(F)F)cc2)nc1Cc1ccnc(C(F)(F)F)c1 ?
# output 45

# input How about Cc1cc(=O)n(-c2ccc(C(F)(F)F)cc2)nc1Cc1ccnc(C(F)(F)F)c1 ?
# output 10

# input How about Cc1cc(=O)n(-c2ccc(F)cc2)nc1Oc1ccnc(C(F)(F)F)c1 ?
# output 15

# input How about CCOc1cc(=O)n(-c2ccc(F)cc2)nc1Cc1ccnc(C(F)(F)F)c1 ?
# output 50

# input How about Cc1cc(=O)n(-c2ccc(F)cc2)nc1Cc1ccnc(C(F)(F)F)c1 ?
# output 15

* * *

- System: ragweed (common ragweed, Ambrosia elatior)
- protocol_description: Test C pre-/postemergence greenhouse herbicide test
- Type: in vivo
- run_conditions: Ambrosia artemisiifolia, pre-emergence; Ragweed; Preemergence; 125 g ai/ha; read-out: Plant response rating
measure: pest or weed control at 125 g/ha (%)
Give the quantity in %, number only.

{"smiles_record": "COc1cc(=O)n(-c2ccc(C(F)(F)F)cc2)nc1Cc1ccnc(C(F)(F)F)c1", "experimental_result": 65}
{"smiles_record": "Cc1cc(=O)n(-c2ccc(F)cc2)nc1Oc1ccnc(C(F)(F)F)c1", "experimental_result": 30}
{"smiles_record": "COc1cc(=O)n(-c2ccc(F)cc2)nc1Cc1ccnc(C(F)(F)F)c1", "experimental_result": 80}
{"smiles_record": "CCOc1cc(=O)n(-c2ccc(F)cc2)nc1Cc1ccnc(C(F)(F)F)c1", "experimental_result": 65}
{"smiles_record": "Cc1cc(=O)n(-c2ccc(C(F)(F)F)cc2)nc1Cc1ccnc(C(F)(F)F)c1", "experimental_result": 60}

Now look at this one.
# input Which pest or weed control at 125 g/ha is reported for this compound? Cc1cc(=O)n(-c2ccc(F)cc2)nc1Cc1ccnc(C(F)(F)F)c1
# output 70

* * *

- Tested on: blackgrass (Alopecurus myosuroides)
- protocol_description: Test C pre-/postemergence greenhouse herbicide test
- Format: in vivo
- run_conditions: Alopecurus myosuroides, pre-emergence; Blackgrass; Preemergence; 62 g ai/ha; read-out: Plant response rating
Documented pest or weed control at 62 g/ha across a set of molecules
Give the quantity in %, number only.

Here is how some molecules turned out for pest or weed control at 62 g/ha.
{"molecule": "COc1cc(=O)n(-c2ccc(C(F)(F)F)cc2)nc1Cc1ccnc(C(F)(F)F)c1", "pest or weed control at 62 g/ha, %": 50}
{"molecule": "CCOc1cc(=O)n(-c2ccc(F)cc2)nc1C(O)c1ccnc(C(F)(F)F)c1 (stereo not shown)", "pest or weed control at 62 g/ha, %": 5}
{"molecule": "Cc1cc(=O)n(-c2ccc(F)cc2)nc1Cc1ccnc(C(F)(F)F)c1", "pest or weed control at 62 g/ha, %": 30}
{"molecule": "CCOc1cc(=O)n(-c2ccc(F)cc2)nc1Cc1ccnc(C(F)(F)F)c1", "pest or weed control at 62 g/ha, %": 85}
{"molecule": "Cc1cc(=O)n(-c2ccc(F)cc2)nc1Oc1ccnc(C(F)(F)F)c1", "pest or weed control at 62 g/ha, %": 10}
{"molecule": "Cc1cc(=O)n(-c2ccc(C(F)(F)F)cc2)nc1Cc1ccnc(C(F)(F)F)c1", "pest or weed control at 62 g/ha, %": 45}

Now look at this one.
# input Which pest or weed control at 62 g/ha is reported for this molecule? COc1cc(=O)n(-c2ccc(F)cc2)nc1Cc1ccnc(C(F)(F)F)c1
# output 80

* * *

- System: chamomile (scentless chamomile, Matricaria inodora)
- protocol_description: Test D pre-/postemergence controlled growth environment herbicide test
- Assay type: in vivo
- run_conditions: Postemergence, 31 g ai/ha, scale 0 to 100
measure: Plant response rating
Reply with just the number.

{"molecule": "Cc1cc(=O)n(-c2ccc(F)cc2)nc1Oc1ccnc(C(F)(F)F)c1 [Compound 14]", "tested_on": "chamomile (scentless chamomile, Matricaria inodora)", "experimental_result": 10}

# input Which Plant response rating is reported for this molecule? Cc1cc(=O)n(-c2ccc(F)cc2)nc1Cc1ccnc(C(F)(F)F)c1 [Compound 1]
# output 30

# input How about Cc1cc(=O)n(-c2ccc(C(F)(F)F)cc2)nc1Cc1ccnc(C(F)(F)F)c1 [Compound 2] ?
# output 30

# input How about COc1cc(=O)n(-c2ccc(F)cc2)nc1Cc1ccnc(C(F)(F)F)c1 [Compound 17] ?
# output 20

* * *

Documented pest or weed control at 125 g/ha across a set of compounds
- Tested on: barnyardgrass (Echinochloa crus-galli)
- protocol_description: Test A pre-/postemergence greenhouse herbicide test
- Assay type: in vivo
- run_conditions: Echinochloa crus-galli, pre-emergence, 240 h; Preemergence, 125 g ai/ha; 0 to 100 scale (0 no effect, 100 complete control), approx. 10 d; read-out: Plant response rating, Barnyardgrass
Give the quantity in %, number only.

{"smiles_record": "Cc1cc(=O)n(-c2ccc(F)cc2)nc1Cc1ccnc(C(F)(F)F)c1", "pest or weed control at 125 g/ha / %": 100}

# input Form entry - test system: barnyardgrass (Echinochloa crus-galli); read-out: pest or weed control at 125 g/ha; compound: CCOc1cc(=O)n(-c2ccc(F)cc2)nc1Cc1ccnc(C(F)(F)F)c1
# output 90

# input How about CCOc1cc(=O)n(-c2ccc(F)cc2)nc1C(=O)c1ccnc(C(F)(F)F)c1 ?
# output 20

# input How about Cc1cc(=O)n(-c2ccc(F)cc2)nc1Cn1ccc(C(F)(F)F)n1 ?
# output 0

# input How about COc1cc(=O)n(-c2ccc(C(F)(F)F)cc2)nc1Cc1ccnc(C(F)(F)F)c1 ?
# output 90

# input How about Cc1cc(=O)n(-c2ccc(F)cc2)nc1Oc1ccnc(C(F)(F)F)c1 ?
# output 70

# input How about Cc1cc(Oc2ccnc(C(F)(F)F)c2)nn(-c2ccc(C(F)(F)F)cc2)c1=O ?
# output 40

* * *

- Test system: kochia (Kochia scoparia)
- protocol_description: Test C pre-/postemergence greenhouse herbicide test
- Type: in vivo
- run_conditions: Postemergence, 62 g ai/ha
Documented Plant response rating across a set of compounds
Reply with just the number.

# input Which Plant response rating is reported for this compound? Cc1cc(=O)n(-c2ccc(F)cc2)nc1Oc1ccnc(C(F)(F)F)c1
# output 35

# input How about COc1cc(=O)n(-c2ccc(F)cc2)nc1Cc1ccnc(C(F)(F)F)c1 ?
# output 90

# input How about Cc1cc(=O)n(-c2ccc(C(F)(F)F)cc2)nc1Cc1ccnc(C(F)(F)F)c1 ?
# output 85

# input How about Cc1cc(=O)n(-c2ccc(F)cc2)nc1Cc1ccnc(C(F)(F)F)c1 ?
# output 80

# input How about COc1cc(=O)n(-c2ccc(C(F)(F)F)cc2)nc1Cc1ccnc(C(F)(F)F)c1 ?
# output 90

# input How about Cc1cc(Oc2ccnc(C(F)(F)F)c2)nn(-c2ccc(C(F)(F)F)cc2)c1=O ?
# output 90

* * *

- System: downy bromegrass (Bromus tectorum)
- protocol_description: Test D pre-/postemergence controlled growth environment herbicide test
- Type: in vivo
- run_conditions: Preemergence, 250 g ai/ha, scale 0 to 100
measure: Plant response rating

Here is how some compounds turned out for Plant response rating.
{"smiles_record": "COc1cc(=O)n(-c2ccc(F)cc2)nc1Cc1ccnc(C(F)(F)F)c1", "experimental_result": 30}
{"smiles_record": "Cc1cc(=O)n(-c2ccc(F)cc2)nc1Oc1ccnc(C(F)(F)F)c1", "experimental_result": 0}
{"smiles_record": "Cc1cc(=O)n(-c2ccc(C(F)(F)F)cc2)nc1Cc1ccnc(C(F)(F)F)c1", "experimental_result": 20}

Now look at this one.
# input Form entry - test system: downy bromegrass (Bromus tectorum); read-out: Plant response rating; compound: Cc1cc(=O)n(-c2ccc(F)cc2)nc1Cc1ccnc(C(F)(F)F)c1
# output 25

* * *

Documented pest or weed control at 125 g/ha across a set of compounds
- System: crabgrass, Large (large crabgrass, Digitaria sanguinalis)
- protocol_description: Test A pre-/postemergence greenhouse herbicide test
- Type: in vivo
- run_conditions: Digitaria sanguinalis, pre-emergence, 240 h; Preemergence, 125 g ai/ha; 0 to 100 scale (0 no effect, 100 complete control), approx. 10 d; read-out: Plant response rating, Crabgrass, Large
Give the quantity in %, number only.

Here is how some compounds turned out for pest or weed control at 125 g/ha.
{"compound": "CCOc1cc(=O)n(-c2ccc(F)cc2)nc1Cc1ccnc(C(F)(F)F)c1", "tested_on": "crabgrass, Large (large crabgrass, Digitaria sanguinalis)", "readout_units": "%", "experimental_result": 100}
{"compound": "Cc1cc(Oc2ccnc(C(F)(F)F)c2)nn(-c2ccc(C(F)(F)F)cc2)c1=O", "tested_on": "crabgrass, Large (large crabgrass, Digitaria sanguinalis)", "readout_units": "%", "experimental_result": 100}
{"compound": "Cc1cc(=O)n(-c2ccc(F)cc2)nc1Cc1ccnc(C(F)(F)F)c1", "tested_on": "crabgrass, Large (large crabgrass, Digitaria sanguinalis)", "readout_units": "%", "experimental_result": 100}
{"compound": "Cc1cc(=O)n(-c2ccc(F)cc2)nc1Cn1ccc(C(F)(F)F)n1", "tested_on": "crabgrass, Large (large crabgrass, Digitaria sanguinalis)", "readout_units": "%", "experimental_result": 30}
{"compound": "CCOc1cc(=O)n(-c2ccc(F)cc2)nc1C(=O)c1ccnc(C(F)(F)F)c1", "tested_on": "crabgrass, Large (large crabgrass, Digitaria sanguinalis)", "readout_units": "%", "experimental_result": 100}

# input Which pest or weed control at 125 g/ha is reported for this compound? COc1cc(=O)n(-c2ccc(F)cc2)nc1Cc1ccnc(C(F)(F)F)c1
# output 100
